This collection of values is drawn from patent US12466804B2.

- target-or-system: human LPA1 (Homo sapiens)
- Construct: expressed in transfected cells; host or cells: Chinese hamster ovary (CHO) cells
- Sequence (Q92633 whole entry): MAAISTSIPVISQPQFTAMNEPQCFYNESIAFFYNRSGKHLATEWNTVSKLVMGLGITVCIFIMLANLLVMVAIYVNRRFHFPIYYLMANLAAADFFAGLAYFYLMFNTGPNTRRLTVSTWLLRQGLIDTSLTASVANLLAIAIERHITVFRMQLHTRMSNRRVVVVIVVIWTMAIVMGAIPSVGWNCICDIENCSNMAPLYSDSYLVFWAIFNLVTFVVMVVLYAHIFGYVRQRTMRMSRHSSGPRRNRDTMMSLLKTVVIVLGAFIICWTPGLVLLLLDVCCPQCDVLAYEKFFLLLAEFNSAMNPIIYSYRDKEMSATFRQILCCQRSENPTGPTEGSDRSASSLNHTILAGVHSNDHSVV
- test-description: LPA1 functional antagonist assay (LPA-induced calcium flux)
- Format: cell-based
- conditions: CHO cells overexpressing human LPA1; calcium flux induced by 10 nM LPA; read-out: hLPA1 IC50
recorded-metric: pIC50
Note on pIC50: it is the negative log10 of concentration, concentration in mol/L.

| compound | recorded-metric | reported |
| --- | --- | --- |
| Cc1nc(-c2onc(C)c2CNc2nccc(-c3ccccn3)n2)ccc1OC[C@@H]1CC[C@H]1C(=O)O (racemic) | pIC50 | 7.74 |

Record summary for Cc1nc(-c2nnn(C)c2CNc2ncc(-c3ccccn3)o2)ccc1OC[C@@H]1CC[C@H]1C(=O)O (racemic) : reported pIC50 = 6.28

Record summary for Cc1nc(-c2nnn(C)c2NC(=O)OCC2CC2)ccc1OC[C@H]1CC[C@@H]1C(=O)O (racemic) : reported pIC50 = 5.44

Record summary for Cc1nc(-c2nnn(C)c2Cn2nnnc2CC2CC2)ccc1OC[C@@H]1CC[C@H]1C(=O)O (racemic) : reported pIC50 = 6.57

Record summary for Cc1noc(-c2ccc(OCC3CC(C(=O)O)C3)cc2)c1COC(=O)N(C)C1CCCC1 (centres unmarked) : reported pIC50 = 6.50

Record summary for Cc1nc(-c2nnn(C)c2CNc2noc(CC3CC3)n2)ccc1OC[C@H]1CC[C@@H]1C(=O)O (racemic) : reported pIC50 = 5.94

Record summary for Cc1nc(-c2nnn(C)c2COC(=O)N(C)CC2CCC2)ccc1O[C@H]1C[C@H](C(=O)O)C1 : reported pIC50 = 6.56
